method.summary: Antifibrotic activity against human HLF1 cells assessed as reduction in cell growth measured after 48 hrs by MTT assay
Type: functional, cell-based
run.conditions: HLF1, 48 h
Record form. Attribute: IC50. Fill in for each entry.
Give bare numbers, in µM.

Use the examples below as a reference point.
molecule	result.number
COc1ccc(-c2nc(=O)n(Cc3c(C)noc3C)c3sc4c(c23)CCC(C(C)(C)C)C4)cc1 (stereo not given)	14.1
CC(C)(C)C1CCc2c(sc3c2c(-c2ccccc2)nc(=O)n3Cc2cnc(Cl)s2)C1 (stereo not given)	7.6
Cc1noc(C)c1Cn1c(=O)nc(-c2ccc(Cl)cc2)c2c3c(sc21)CC(C(C)(C)C)CC3 (stereo not given)	18.9
Cc1noc(C)c1Cn1c(=O)nc(-c2ccc(Cl)c(Cl)c2)c2c3c(sc21)CC(C(C)(C)C)CC3 (stereo not given)	13.6

Return IC50 for the following molecule: Cc1noc(C)c1Cn1c(=O)nc(-c2cccc(Cl)c2)c2c3c(sc21)CC(C(C)(C)C)CC3 (stereo not given) 12.8

Numbers sourced from ChEMBL document CHEMBL4392838.
